Test system: DU-145
Assay: SRB colorimetric assay of cell growth and viability, DU-145
Format: cell-based, human
Details: 48 hours exposure, SRB
Description: The finality of this assay is to interrupt the growth of a “in vitro” tumor cell culture by means a continued exhibition of the cells to the sample to be testing. […] Cells are seeded in 96 well microtiter plates, at 5×10^3 cells per well in aliquots of 195 μL medium, and they are allowed to attach to the plate surface by growing in drug free medium for 18 hours. […] Optical densities are read on a automated spectrophotometric plate reader at a single wavelength of 490 nm. […]
Reported TGI DU-145 values are given for each entry in this list.
State the answer as a number, implicitly in Molar.

Illustrative cases are given below, each with its answer.
>>> measurement("C/C=C1\\NC(=O)[C@H](Cc2ccccc2)NC(=O)[C@@H](C(C)C)NC(=O)[C@@H]([C@@H](C)CC)NC(=O)[C@H](NC(=O)[C@H](NC(=O)[C@H](CCCC[N+](C)(C)C)NC(=O)[C@H]2CCCN2C(=O)[C@H](NC(=O)[C@@H](NC(=O)[C@@H](NC(=O)[C@H](NC(=O)CC[C@@H](C)CC)C(C)C)[C@@H](C)O)C(C)C)C(C)C)[C@@H](C)CC)[C@@H](C)OC(=O)[C@H](C(C)C)NC1=O [Compound 93, [N^ε(Me)3-Lys^8, (4S)-MeHex^14]-KF]")
"1.66E−08"
>>> measurement("C/C=C1\\NC(=O)[C@H](Cc2ccc(I)cc2)NC(=O)[C@@H](C(C)C)NC(=O)[C@@H]([C@@H](C)CC)NC(=O)[C@H](NC(=O)[C@H](NC(=O)[C@H](CCCN)NC(=O)[C@H]2CCCN2C(=O)[C@H](NC(=O)[C@@H](NC(=O)[C@@H](NC(=O)[C@H](NC(=O)CC[C@@H](C)CC)C(C)C)[C@@H](C)O)C(C)C)C(C)C)[C@@H](C)CC)[C@@H](C)OC(=O)[C@H](C(C)C)NC1=O [Compound 72, [Phe(4-I)^3, (4S)-MeHex^14]-KF]")
"2.37E−07"
>>> measurement("C/C=C1\\NC(=O)[C@H](Cc2c(F)c(F)c(F)c(F)c2F)NC(=O)[C@@H](C(C)C)NC(=O)[C@@H]([C@@H](C)CC)NC(=O)[C@H](NC(=O)[C@H](NC(=O)[C@H](CCCN)NC(=O)[C@H]2CCCN2C(=O)[C@H](NC(=O)[C@@H](NC(=O)[C@@H](NC(=O)[C@H](NC(=O)CC[C@@H](C)CC)C(C)C)[C@@H](C)O)C(C)C)C(C)C)[C@@H](C)CC)[C@@H](C)OC(=O)[C@H](C(C)C)NC1=O [Compound 71, [Phe(F5)^3, (4S)-MeHex^14]-KF]")
"2.11E−06"
>>> measurement("C/C=C1\\NC(=O)[C@H](Cc2ccccc2)N(C)C(=O)[C@@H](C(C)C)NC(=O)[C@@H]([C@@H](C)CC)NC(=O)[C@H](NC(=O)[C@H](NC(=O)[C@H](CCCN)NC(=O)[C@H]2CCCN2C(=O)[C@H](NC(=O)[C@@H](NC(=O)[C@@H](NC(=O)[C@H](NC(=O)CC[C@@H](C)CC)C(C)C)[C@@H](C)O)C(C)C)C(C)C)[C@@H](C)CC)[C@@H](C)OC(=O)[C@H](C(C)C)NC1=O [Compound 80, [NMePhe^3, (4S)-MeHex^14]-KF]")
"1.97E−06"

# input for lookup
Lookup: Give DU-145 TGI DU-145 for C/C=C1\NC(=O)[C@H](Cc2ccccc2)NC(=O)[C@@H](C(C)C)NC(=O)[C@@H]([C@@H](C)CC)NC(=O)[C@H](NC(=O)[C@H](NC(=O)[C@H](CCCN)NC(=O)[C@H]2CCCN2C(=O)[C@H](NC(=O)[C@@H](NC(=O)[C@@H](NC(=O)[C@H](NC(=O)CC[C@@H](C)[C@H]2CC[C@H]3[C@@H]4CC[C@@H]5C[C@H](OC(=O)C(F)(F)F)CC[C@]5(C)[C@H]4CC[C@]23C)C(C)C)[C@@H](C)OC(=O)C(F)(F)F)C(C)C)C(C)C)[C@@H](C)CC)[C@@H](C)OC(=O)[C@H](C(C)C)NC1=O [Compound 97]
Found: 1.21E−06
